# Tgt: T1, PDLoneECDHisCtag (human, UniProt Q9NZQ7 19-238)
# T1 construct: Expressed in HEK-293F cells; theoretical molecular weight 29 kDa; also called recombinant human PD-L1 ECD; human PD-L1 (BLI); not shown: C-terminal His-tag; C-tag
# Method Description: BLI cross-block, second antibody on PDLoneECDHisCtag held by immobilised 632; plain = non-blocking
Measurement Type: association response of the second antibody (nm)
Please respond with the number in nm and leave the unit unwritten.

Query: association response of the second antibody; subject: IgG1-421-LC91S-FEAR (antibody, V domains shown) VH: EVQLVESGGGLVQPGRSLRLSCAASGFTFDDYAMHWVRQGPGKGLEWVSGIRWNSGSMHYADSVKGRFTISRDNAKSSLYLQMNSLRAEDTALYYCARAPWYSGAWHPDYWGQGTLVTVSS VL: QSALTQPRSVSGSPGQSVTISCTGTSSDVGTYNYVSWYQQHPGKAPKLMIYDVIKRPSGVPDRFSGSKSGNTASLTLSGLQAEDEADYYCSSYAGTYTLLFGGGTKLTVL 0.6

Origin of the recorded values: patent US20200239579A1
